experiment: Pharmacokinetic studies of certain compounds in female Balb/c mice (Example 5); assay type: in vivo; conditions: female, Balb/c, mouse, plasma, po, 23.8 mg/kg, I-29 PO 23.8 mg/kg, 2 hr, read-out: Plasma concentration Mean
READOUT_LABEL: concentration at 2 hr (ng/mL)

| COMPOUND_SMILES | MEASURED_RESULT |
| --- | --- |
| CC(C)Cc1sc(Nc2ncc(-c3cccs3)cc2C(=O)O)nc1C1CCC(F)(F)CC1 | 605 |

---

Assay: Pharmacokinetic studies of certain compounds in female Balb/c mice (Example 5)
Format: in vivo
Conditions: female, Balb/c, mouse, plasma, po, 30 mg/kg, I-27 PO 30 mg/kg, 0.25 hr, read-out: Plasma concentration Mean
Protocol: Pharmacokinetic studies were performed using Balb/c mice, 15-20 g, 6-9 weeks, female, N=9, purchased from Jihui Laboratory Animal Co. LTD. For compound I-29, Balb/c mice, 19-21 g, 9-11 weeks, female, N=9, were used. […] Plasma samples were analyzed using LC-MS using a calibration curve of known concentrations. The results of these studies are summarized in Tables 11-21 below and in FIGS. 2-8. […] BQL=below quantifiable limit for compound in female Balb/c mouse plasma samples. […]

| COMPOUND_SMILES | concentration at 0.25 h [ng/mL] |
| --- | --- |
| CC(C)Cc1sc(Nc2ncc(-c3cccs3)cc2C(=O)O)nc1C1(C)CCCCC1 | 468 |

---

assay: Pharmacokinetic studies of certain compounds in female Balb/c mice (Example 5); format: in vivo; conditions: mouse, plasma, I-3 IV 1 mg/kg, read-out: Vss

| COMPOUND_SMILES | Vd (L/kg) |
| --- | --- |
| CC(C)Cc1sc(Nc2ncc(-c3cccs3)cc2C(=O)O)nc1C1CCCCC1 | 0.695 |

---

assay: Pharmacokinetic study of I-11 in female BALB/c mice (Example 4); type: in vivo, Balb/c mouse; conditions: mouse, plasma, PO 50 mg/kg

| COMPOUND_SMILES | half-life |
| --- | --- |
| CC(C)Cc1sc(Nc2ncc(-c3cccs3)cc2C(=O)O)nc1C(C)(C)C | 4.05 h |

---

test: Pharmacokinetic studies of certain compounds in female Balb/c mice (Example 5); type: in vivo; settings: female, Balb/c, mouse, plasma, iv, 1 mg/kg, I-27 IV 1 mg/kg, 1 hr, read-out: Plasma concentration Individual

| COMPOUND_SMILES | UNIT_INFO | concentration at 1 hr |
| --- | --- | --- |
| CC(C)Cc1sc(Nc2ncc(-c3cccs3)cc2C(=O)O)nc1C1(C)CCCCC1 | ng/mL | 341 |

---

test: Pharmacokinetic studies of certain compounds in female Balb/c mice (Example 5); format: in vivo; conditions: female, Balb/c, mouse, plasma, po, 50 mg/kg, I-8 PO 50 mg/kg, 2 hr, read-out: Plasma concentration Individual
READOUT_LABEL: concentration at 2 h (ng/mL)

| COMPOUND_SMILES | MEASURED_RESULT |
| --- | --- |
| CC(C)Cc1sc(Nc2ncc(-c3cccs3)cc2C(=O)O)nc1C1=CCCC1 | 1670 |

---

test: Pharmacokinetic studies of certain compounds in female Balb/c mice (Example 5); format: in vivo; settings: female, Balb/c, mouse, plasma, po, 30 mg/kg, I-27 PO 30 mg/kg, 0.5 hr, read-out: Plasma concentration Mean

| COMPOUND_SMILES | concentration at 0.5 h [ng/mL] |
| --- | --- |
| CC(C)Cc1sc(Nc2ncc(-c3cccs3)cc2C(=O)O)nc1C1(C)CCCCC1 | 1650 |
